ASSAY_PROTOCOL: Microsomal stability, human
Type: in vitro ADME
TEST_SETTINGS: human, pooled liver microsomes, pH 7.4, human liver microsomes 0.5 mg/mL; 1 µM compound
Field 'label' (enum: Satisfied / Not satisfied). Set to Satisfied when microsomal CLint at 1 µM is strictly under 50 µL/min/mg; else Not satisfied.

Past entries and their recorded results:
MOLECULE: CCC/C=C/c1cc2c(cn1)[C@H](O)[C@H]1O[C@@]1(CC=C(C)C)C2=O [compound 27]
LABEL_VALUE: Not satisfied

MOLECULE: CCCC=Cc1ccc2c(c1)C(=O)C1(CC=C(C)C)OC1C2O (centres unmarked) [compound 35]
LABEL_VALUE: Satisfied

MOLECULE: CCCC=Cc1cc2c(cn1)C(O)C1OC1(CC=C(C)C)C2=O (stereo not drawn) [ent‐4]
LABEL_VALUE: Satisfied

MOLECULE: CCC/C=C/c1cc2c(cn1)[C@@H](O)[C@H]1O[C@@]1(CC=C(C)C)C2=O [compound 4]
LABEL_VALUE: Not satisfied

Now look at this entry.
Prompt line: Find out if reported microsomal CLint at 1 µM for CCC/C=C/c1ccc2c(c1)C(=O)[C@]1(CC=C(C)C)O[C@@H]1[C@H]2O [compound 36] is less than 50 µL/min/mg
Response line: Satisfied

----------
ASSAY_PROTOCOL: Microsomal stability, human
Type: in vitro ADME
TEST_SETTINGS: human liver microsomes 0.5 mg/mL; 1 µM compound
VALUE_TYPE: Microsomal stability t1/2, Human (min)
Please respond with the number in min and leave the unit unwritten.

COMPOUND: CCCC=Cc1ccc2c(c1)C(=O)C1(CC=C(C)C)OC1C2O (stereo not drawn) [ent‐35]
Microsomal stability t1/2, Human / min: 34.3
//
COMPOUND: CCCC=Cc1cc2c(cn1)C(O)C1OC1(CC=C(C)C)C2=O (stereo not shown)
Microsomal stability t1/2, Human / min: 31.3
//
COMPOUND: CC(C)=CCC12OC1C(O)c1ccccc1C2=O (stereo not drawn) [compound 2, (−)‐avicennone C, reference compound]
Microsomal stability t1/2, Human / min: 9.26
//
COMPOUND: CC(C)=CCC12OC1C(O)c1ccccc1C2=O (stereo not shown) [compound 37]
Microsomal stability t1/2, Human / min: 25.4

Prompt line: Which Microsomal stability t1/2, Human value is on record for CC(C)=CCC12OC1C(O)c1ccccc1C2=O (stereo not shown) [compound 38] ?
Response line: 18.2

Prompt line: Which Microsomal stability t1/2, Human value is on record for CCCC=Cc1ccc2c(c1)C(=O)C1(CC=C(C)C)OC1C2O (stereo not drawn) [ent‐36] ?
Response line: 46.3

Prompt line: Which Microsomal stability t1/2, Human value is on record for CC(C)=CCC12OC1C(O)c1ccccc1C2=O (stereo not drawn) [ent‐37] ?
Response line: 18.9

----------
System: Caco-2 cells
ASSAY_PROTOCOL: Cellular permeability assay utilizing Caco2 cell line
TEST_SETTINGS: A2B in the presence of elacridar; 10 µM; 120 min
VALUE_TYPE: Caco‐2 permeability Papp +Elacridar

# example entries with known answers
COMPOUND: CCCC=Cc1ccc2c(c1)C(=O)C1(CC=C(C)C)OC1C2O (stereo not drawn) [ent‐36]
Caco‐2 permeability Papp +Elacridar: 12.4 10^−7 cm s^−1
//
COMPOUND: CCCC=Cc1cc2c(cn1)C(O)C1OC1(CC=C(C)C)C2=O (stereo not drawn)
Caco‐2 permeability Papp +Elacridar: 64.4 10^−7 cm s^−1
//
COMPOUND: CCCC=Cc1ccc2c(c1)C(=O)C1(CC=C(C)C)OC1C2O (stereo not drawn) [compound 35]
Caco‐2 permeability Papp +Elacridar: 181 10^−7 cm s^−1

Prompt line: Which Caco‐2 permeability Papp +Elacridar value is on record for CC(C)=CCC12OC1C(O)c1ccccc1C2=O (stereo not drawn) [ent‐37] ?
Response line: 300 10^−7 cm s^−1

Prompt line: Which Caco‐2 permeability Papp +Elacridar value is on record for CC(C)=CCC12OC1C(O)c1ccccc1C2=O (stereo not drawn) [compound 38] ?
Response line: 331 10^−7 cm s^−1

Prompt line: Which Caco‐2 permeability Papp +Elacridar value is on record for CC(C)=CCC12OC1C(O)c1ccccc1C2=O (stereo not drawn) [compound 2, (−)‐avicennone C, reference compound] ?
Response line: 393 10^−7 cm s^−1
